Tested on: PDC KRAS tumor spheroids with HUVEC/MSC, viability
Experiment: Anticancer human tumor 349418-098-R-PDC patient-derived lung adenocarcinoma cell line growth inhibition [KRAS2]
Conditions: second compound 0.316 µM; first compound 0.0316 µM; stronger effect = lower value
measured attribute: viability, T/C

Past entries and their recorded results:
Cn1ncnc1[C@H]1c2n[nH]c(=O)c3cc(F)cc(c23)N[C@@H]1c1ccc(F)cc1 + COc1cc2nc(C)nc(NC(C)c3cc(N)cc(C(F)(F)F)c3)c2cc1OC1CCOC1	88.3%
CN(C)C/C=C/C(=O)Nc1cc2c(Nc3ccc(F)c(Cl)c3)ncnc2cc1O[C@H]1CCOC1 + C=CC(=O)N1CCN(c2nc(OCC3CCCN3C)nc3c2CCN(c2cccc4cccc(C)c24)C3)CC1CC#N	82.1%

Let us examine a further case.
CCN1CCN(Cc2ccc(Nc3ncc(F)c(-c4cc(F)c5nc(C)n(C(C)C)c5c4)n3)nc2)CC1 + COc1cc2nc(C)nc(NC(C)c3cc(N)cc(C(F)(F)F)c3)c2cc1OC1CCOC1 has a reported viability, T/C of 16.6%

###

Test system: PDC KRAS tumor spheroids with HUVEC/MSC, viability
Assay: Anticancer human tumor 349418-098-R-PDC cell line growth inhibition [KRAS2];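 further: spheroids exposed to compounds for seven days before readout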
Details: second compound 0.1 µM; first compound 0.00316 µM; stronger effect = lower value
Note to self: viability, T/C under 90% means yes, ties and anything higher get no.

Cn1ncnc1[C@H]1c2n[nH]c(=O)c3cc(F)cc(c23)N[C@@H]1c1ccc(F)cc1 + CNCc1ccccc1-c1csc(C(C)Nc2nc(C)nc3cc(OC)c(OC)cc23)c1	no
CC(=O)Nc1cccc(-n2c(=O)n(C3CC3)c(=O)c3c(Nc4ccc(I)cc4F)n(C)c(=O)c(C)c32)c1 + COc1cc2nc(C)nc(NC(C)c3cc(N)cc(C(F)(F)F)c3)c2cc1OC1CCOC1	yes
CC(=O)Nc1cccc(-n2c(=O)n(C3CC3)c(=O)c3c(Nc4ccc(I)cc4F)n(C)c(=O)c(C)c32)c1 + CNCc1ccccc1-c1csc(C(C)Nc2nc(C)nc3cc(OC)c(OC)cc23)c1	yes
CN(C)C/C=C/C(=O)Nc1cc2c(Nc3ccc(F)c(Cl)c3)ncnc2cc1O[C@H]1CCOC1 + C=CC(=O)N1CCN(c2nc(OCC3CCCN3C)nc3c2CCN(c2cccc4cccc(C)c24)C3)CC1CC#N	yes

Q: Hi there! Is viability, T/C for Cn1ncnc1[C@H]1c2n[nH]c(=O)c3cc(F)cc(c23)N[C@@H]1c1ccc(F)cc1 + CC1OCC2(CCN(c3cnc(Sc4ccnc(N)c4Cl)c(N)n3)CC2)C1N below 90%, do you know?
Result: no

###

System: PDC KRAS tumor spheroids with HUVEC/MSC, viability
Assay: Anticancer human tumor 349418-098-R-PDC cell line growth inhibition [KRAS2]; active = viability on the fitted dose curve at most 10% of control; inactive = the rest;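 further: spheroids exposed to compounds for seven days before readout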
Conditions: second compound 0.1 µM; first compound 0.0316 µM
Write down one outcome, taken from active, inactive

Worked examples follow.
CN(C)C/C=C/C(=O)Nc1cc2c(Nc3ccc(F)c(Cl)c3)ncnc2cc1O[C@H]1CCOC1 + COc1cc2nc(C)nc(NC(C)c3cc(N)cc(C(F)(F)F)c3)c2cc1OC1CCOC1	inactive
CN(C)C/C=C/C(=O)Nc1cc2c(Nc3ccc(F)c(Cl)c3)ncnc2cc1O[C@H]1CCOC1 + CC1OCC2(CCN(c3cnc(Sc4ccnc(N)c4Cl)c(N)n3)CC2)C1N	inactive

Lab note: next compound to report on.
Q: Test call, this compound: CC(=O)Nc1cccc(-n2c(=O)n(C3CC3)c(=O)c3c(Nc4ccc(I)cc4F)n(C)c(=O)c(C)c32)c1 + C=CC(=O)N1CCN(c2nc(OCC3CCCN3C)nc3c2CCN(c2cccc4cccc(C)c24)C3)CC1CC#N
Result: active
